Readings of percentage of EdU-negative for the listed sequences
system: MCF7; assay: percentage of EdU-negative (G0-arrested) nuclei per well, 72 h; higher = more G0 arrest; conditions: protein concentration 0.0225 µM; reference: sequence is the full UniProt precursor, the tested protein was the secreted form or ectodomain;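 further: secreted proteins added to cultured cells, EdU pulse at the end, nuclei found by Hoechst imaging, EdU status from nuclear versus surrounding ring intensity ratio, PBS as neutral control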
endpoint-label: percentage of EdU-negative (%)

MRPLLVLLLLGLAAGSPPLDDNKIPSLCPGHPGLPGTPGHHGSQGLPGRDGRDGRDGAPGAPGEKGEGGRPGLPGPRGDPGPRGEAGPAGPTGPAGECSVPPRSAFSAKRSESRVPPPSDAPLPFDRVLVNEQGHYDAVTGKFTCQVPGVYYFAVHATVYRASLQFDLVKNGESIASFFQFFGGWPKPASLSGGAMVRLEPEDQVWVQVGVGDYIGIYASIKTDSTFSGFLVYSDWHSSPVFA [Q9BXJ0]	23.7
MSMSPTVIILACLGFFLDQSVWAHVGGQDKPFCSAWPSAVVPQGGHVTLRCHYRRGFNIFTLYKKDGVPVPELYNRIFWNSFLISPVTPAHAGTYRCRGFHPHSPTEWSAPSNPLVIMVTGLYEKPSLTARPGPTVRAGENVTLSCSSQSSFDIYHLSREGEAHELRLPAVPSINGTFQADFPLGPATHGETYRCFGSFHGSPYEWSDPSDPLPVSVTGNPSSSWPSPTEPSFKTGIARHLHAVIRYSVAIILFTILPFFLLHRWCSKKKDAAVMNQEPAGHRTVNREDSDEQDPQEVTYAQLDHCIFTQRKITGPSQRSKRPSTDTSVCIELPNAEPRALSPAHEHHSQALMGSSRETTALSQTQLASSNVPAAGI	24.4
MKAWGTVVVTLATLMVVTVDAKIYERCELAARLERAGLNGYKGYGVGDWLCMAHYESGFDTAFVDHNPDGSSEYGIFQLNSAWWCDNGITPTKNLCHMDCHDLLNRHILDDIRCAKQIVSSQNGLSAWTSWRLHCSGHDLSEWLKGCDMHVKIDPKIHP [Q96QH8]	25.8
